target_of_assay: Sigma intracellular receptor 2 (Homo sapiens)
Sequence (Q5BJF2 whole entry): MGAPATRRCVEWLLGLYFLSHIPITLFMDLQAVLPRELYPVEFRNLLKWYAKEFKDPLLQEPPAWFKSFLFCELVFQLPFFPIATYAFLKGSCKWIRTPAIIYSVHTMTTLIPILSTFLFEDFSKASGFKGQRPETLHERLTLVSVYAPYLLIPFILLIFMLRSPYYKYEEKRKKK
measurement_notes: GPCRScan assay: inhibition of Sigma 2
pKi: −log10 of the molar value.

| record_smiles | pKi |
| --- | --- |
| CCC(=O)N[C@@H]1CC[C@H](C(=O)N(C)c2ccc(-c3nc4ccccc4o3)cc2)C1 | 6.40 |

###

target_of_assay: Voltage-dependent L-type calcium channel subunit alpha-1C (DHP site) (Rattus norvegicus)
Sequence (P22002 whole entry): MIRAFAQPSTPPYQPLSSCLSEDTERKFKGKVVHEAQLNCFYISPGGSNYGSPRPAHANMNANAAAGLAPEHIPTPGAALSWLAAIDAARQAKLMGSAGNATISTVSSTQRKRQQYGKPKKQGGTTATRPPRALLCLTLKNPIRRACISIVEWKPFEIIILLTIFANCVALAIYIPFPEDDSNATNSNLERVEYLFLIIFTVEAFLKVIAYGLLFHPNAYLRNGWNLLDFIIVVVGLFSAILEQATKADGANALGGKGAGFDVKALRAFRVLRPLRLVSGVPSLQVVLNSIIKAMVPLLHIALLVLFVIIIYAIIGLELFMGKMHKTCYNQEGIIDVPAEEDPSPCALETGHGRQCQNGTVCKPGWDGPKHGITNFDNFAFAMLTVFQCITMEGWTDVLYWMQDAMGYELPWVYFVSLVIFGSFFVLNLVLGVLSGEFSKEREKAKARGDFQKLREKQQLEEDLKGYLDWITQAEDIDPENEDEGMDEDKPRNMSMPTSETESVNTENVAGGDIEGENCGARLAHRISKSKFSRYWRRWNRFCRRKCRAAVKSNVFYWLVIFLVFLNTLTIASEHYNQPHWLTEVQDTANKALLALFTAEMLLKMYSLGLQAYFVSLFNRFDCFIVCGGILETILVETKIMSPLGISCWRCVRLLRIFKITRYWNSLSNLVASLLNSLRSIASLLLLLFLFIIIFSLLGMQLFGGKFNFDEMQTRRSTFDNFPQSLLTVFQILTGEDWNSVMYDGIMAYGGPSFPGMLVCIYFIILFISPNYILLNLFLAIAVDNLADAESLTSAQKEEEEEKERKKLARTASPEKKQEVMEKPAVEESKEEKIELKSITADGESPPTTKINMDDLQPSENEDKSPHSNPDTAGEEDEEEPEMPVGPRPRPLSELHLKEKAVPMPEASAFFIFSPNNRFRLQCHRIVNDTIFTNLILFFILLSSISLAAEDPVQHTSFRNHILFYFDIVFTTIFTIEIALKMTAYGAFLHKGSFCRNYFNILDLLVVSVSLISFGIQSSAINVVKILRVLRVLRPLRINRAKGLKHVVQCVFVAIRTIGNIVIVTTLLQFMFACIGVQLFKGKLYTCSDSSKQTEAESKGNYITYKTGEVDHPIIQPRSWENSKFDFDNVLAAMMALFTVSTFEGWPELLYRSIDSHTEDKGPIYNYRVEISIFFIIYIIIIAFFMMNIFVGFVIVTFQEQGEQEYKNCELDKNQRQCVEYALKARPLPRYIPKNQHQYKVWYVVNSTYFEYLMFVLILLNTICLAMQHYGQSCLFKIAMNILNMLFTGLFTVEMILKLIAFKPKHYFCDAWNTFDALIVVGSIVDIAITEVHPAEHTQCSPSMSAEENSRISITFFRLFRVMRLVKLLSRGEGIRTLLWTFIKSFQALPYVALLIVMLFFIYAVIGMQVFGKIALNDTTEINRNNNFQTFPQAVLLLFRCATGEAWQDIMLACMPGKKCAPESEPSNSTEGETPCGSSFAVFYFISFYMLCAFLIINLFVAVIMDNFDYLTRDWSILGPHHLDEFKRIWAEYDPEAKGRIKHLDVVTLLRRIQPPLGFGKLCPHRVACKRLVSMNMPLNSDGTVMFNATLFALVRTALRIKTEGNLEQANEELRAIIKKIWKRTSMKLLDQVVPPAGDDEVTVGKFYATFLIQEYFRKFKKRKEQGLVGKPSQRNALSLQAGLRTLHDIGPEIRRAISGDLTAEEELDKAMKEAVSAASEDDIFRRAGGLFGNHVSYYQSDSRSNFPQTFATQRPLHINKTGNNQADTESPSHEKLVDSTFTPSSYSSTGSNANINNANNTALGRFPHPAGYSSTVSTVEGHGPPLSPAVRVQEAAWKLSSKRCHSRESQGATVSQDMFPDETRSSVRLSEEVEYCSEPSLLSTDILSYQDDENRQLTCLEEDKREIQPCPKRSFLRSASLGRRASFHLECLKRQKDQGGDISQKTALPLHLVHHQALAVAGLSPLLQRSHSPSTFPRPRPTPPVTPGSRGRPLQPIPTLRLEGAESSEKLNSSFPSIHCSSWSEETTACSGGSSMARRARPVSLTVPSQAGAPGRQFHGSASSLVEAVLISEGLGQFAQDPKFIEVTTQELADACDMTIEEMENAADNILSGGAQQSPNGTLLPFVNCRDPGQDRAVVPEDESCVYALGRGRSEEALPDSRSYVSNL
measurement_notes: CA+/DHPSI/RA Eurofins-Panlabs selectivity data (BI)
details: compound concentration 10 uM, read-out: % Ctrl

| record_smiles | activity at 10 µM |
| --- | --- |
| CCC(=O)N[C@H]1CC[C@@H](C(=O)N(C)c2ccc(-c3nc4ccccc4o3)cc2)C1 | 93% (not active) |

###

target_of_assay: hERG (KCNH2) potassium channel (Homo sapiens, UniProt Q12809)
Sequence (Q12809 whole entry): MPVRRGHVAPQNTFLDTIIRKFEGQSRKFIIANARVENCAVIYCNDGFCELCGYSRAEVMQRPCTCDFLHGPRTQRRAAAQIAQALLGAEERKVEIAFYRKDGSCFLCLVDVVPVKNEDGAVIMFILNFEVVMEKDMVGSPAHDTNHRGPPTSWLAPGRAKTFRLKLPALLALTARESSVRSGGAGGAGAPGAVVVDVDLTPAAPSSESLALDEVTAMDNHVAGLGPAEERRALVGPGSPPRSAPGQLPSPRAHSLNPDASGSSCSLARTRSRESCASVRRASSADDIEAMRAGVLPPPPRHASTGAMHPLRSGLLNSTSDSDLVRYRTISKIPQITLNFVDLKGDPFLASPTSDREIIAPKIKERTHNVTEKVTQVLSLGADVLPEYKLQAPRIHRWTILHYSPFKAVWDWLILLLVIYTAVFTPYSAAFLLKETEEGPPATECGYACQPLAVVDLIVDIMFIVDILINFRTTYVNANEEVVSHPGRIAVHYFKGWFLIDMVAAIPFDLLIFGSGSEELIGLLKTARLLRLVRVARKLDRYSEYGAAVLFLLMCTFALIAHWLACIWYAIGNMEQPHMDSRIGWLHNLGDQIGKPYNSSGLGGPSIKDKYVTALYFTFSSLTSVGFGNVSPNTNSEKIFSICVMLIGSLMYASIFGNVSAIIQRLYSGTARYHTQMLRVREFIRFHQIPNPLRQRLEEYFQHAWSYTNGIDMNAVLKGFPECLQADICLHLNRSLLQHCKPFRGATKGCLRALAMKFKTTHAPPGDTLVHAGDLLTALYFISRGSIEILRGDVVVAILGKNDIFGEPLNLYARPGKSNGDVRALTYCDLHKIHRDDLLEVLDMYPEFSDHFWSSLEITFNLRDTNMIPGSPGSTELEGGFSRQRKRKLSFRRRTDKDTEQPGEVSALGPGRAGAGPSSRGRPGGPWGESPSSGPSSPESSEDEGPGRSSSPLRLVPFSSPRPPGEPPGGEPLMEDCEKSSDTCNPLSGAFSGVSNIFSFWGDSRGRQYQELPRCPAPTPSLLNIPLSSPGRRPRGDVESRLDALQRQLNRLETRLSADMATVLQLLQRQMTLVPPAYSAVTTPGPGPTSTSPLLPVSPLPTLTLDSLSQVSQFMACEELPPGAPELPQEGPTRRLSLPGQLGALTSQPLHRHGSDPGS
measurement_notes: K+/HERG Eurofins-Panlabs selectivity data (BI)
details: compound concentration 10 uM, read-out: % Ctrl

| record_smiles | activity at 10 µM |
| --- | --- |
| CCC(=O)N[C@H]1CC[C@@H](C(=O)N(C)c2ccc(-c3nc4ccccc4o3)cc2)C1 | 105% (not active) |
